# Tested on: MDA-MB-231 breast
# test.description: NCI-60 one-dose screen, 48 h (100 = growth as untreated, 0 = no growth, -100 = all killed)
# applied.conditions: 10 µM unless noted
This is part of a sample that, as a whole, favours compounds with a hit. Of some 83,000 tested, about 20% had one in any assay. Activity calls are given as the source filed them. The calls were made as follows: active = growth percent below 10; inactive = the rest.
readout.name: growth

Reference set, count: 5
[
  {
    "molecule": "Cc1cc(N2CCN(C)CC2)nc(N(CCNc2ccnc3cc(Cl)ccc23)Cc2ccco2)n1",
    "growth": "9.87% (active)"
  },
  {
    "molecule": "CCCCC[C@H]1CC=C2C(=O)C=C[C@@H]2CC=CCCCC(=O)O[C@@H](CCCCC)CC=C2C(=O)C=C[C@@H]2CC=CCCCC(=O)O[C@@H](CCCCC)CC=C2C(=O)C=C[C@@H]2CC=CCCCC(=O)O1",
    "growth": "-37.2% [8.75 µM] (active)"
  },
  {
    "molecule": "COc1ccc(C2CC(=O)c3c(nc4ccc(Cl)cc4c3N)C2)cc1 (configuration not stated)",
    "growth": "114% (inactive)"
  },
  {
    "molecule": "CC(C)/C=C/CC[C@](C)(O)[C@H]1CC[C@]2(C)[C@@H]1CC[C@@H]1[C@@]3(C)C/C(=C/c4cccc(C(F)(F)F)c4)C(=O)C(C)(C)[C@@H]3CC[C@]12C",
    "growth": "88.9% (inactive)"
  },
  {
    "molecule": "COc1ccc2c(c1)c(-c1nc(-c3cn(C)c4ncccc34)cs1)cn2CCCN1CCCCC1",
    "growth": "44.2% (inactive)"
  }
]

Please look at the items below and tell me growth for each one, in order.
1. Cn1c(/C(C#N)=C/c2ccc3ccccc3c2)cc2ccccc21
2. O=C(NO)c1ccc(Cn2c(=O)n(CCc3ccc(O)cc3)c(=O)c3ccccc32)cc1
3. C=C(C)[C@@H]1CC[C@]2(C(=O)O)CC[C@]3(C)[C@H](CC[C@@H]4[C@@]5(C)C/C(=C/c6ccc(OC)cc6)C(=O)C(C)(C)[C@@H]5CC[C@]43C)[C@@H]12
4. c1csc(-c2nc(-c3cc4ccccc4c(N4CCOCC4)n3)cs2)c1

Result:
5.53% (active)
39.1% (inactive)
32.4% (inactive)
88.7% (inactive)

###

# System: HOP-92 NSCLC
# test.description: NCI-60 one-dose screen, 48 h
# applied.conditions: 10 µM unless noted
# Description: Growth inhibition of the HOP-92 human Non-Small Cell Lung tumor cell line is measured as a screen for anti-cancer activity. Cells are grown in 96 well plates and exposed to the test compound for 48 hours. Compounds are tested at a single concentration, which is 10^-5 M for most compounds. The reported endpoint is percent growth (GI% or GIPRCNT), where numbers from 0 - 100% represent growth inhibition, and numbers from -100% - 0 represent cell death. […]
The panel holds about 83,000 compounds, 20% with a hit somewhere; the sample as a whole holds those more often. Active and inactive are the calls of the source. The calls were made as follows: active = growth percent below 10; inactive = the rest.
API: response.call in T = active, F = inactive

Solved cases (5 shown):
[
  {
    "query.smiles": "COc1ccc(C2(Cl)c3ccccc3N(c3ccccc3)c3ccccc32)cc1",
    "assigned.label": "T"
  },
  {
    "query.smiles": "Cc1cc(N(CCNc2ccnc3cc(Cl)ccc23)Cc2ccco2)nc(Cl)n1",
    "assigned.label": "T"
  },
  {
    "query.smiles": "CC1(C)C(=O)CC[C@]2(C)[C@H]3C(=O)C=C4[C@@H]5C[C@@](C)(C(=O)NCCNCCN)CC[C@]5(C)CC[C@@]4(C)[C@]3(C)CC[C@@H]12",
    "assigned.label": "F"
  },
  {
    "query.smiles": "COc1ccc2c(c1)c(-c1nc(-c3cn(C)c4ncccc34)cs1)cn2CCN",
    "assigned.label": "F"
  },
  {
    "query.smiles": "[B-][N+](CC)(CC)c1ccccc1",
    "assigned.label": "F"
  }
]

Ask: For this molecule, state the assay outcome: Cc1cccc2c1NC(=O)[C@@]21[C@H](C(=O)c2ccccc2)[C@]2(C(=O)Nc3ccccc32)[C@H]2CCCN21
Result: T

Ask: For this molecule, state the assay outcome: COC(=O)[C@]12CC[C@@H](C(C)=O)[C@@H]1[C@H]1CC[C@@H]3[C@@]4(C)C/C(=C/c5cccnc5)C(=O)C(C)(C)[C@@H]4CC[C@@]3(C)[C@]1(C)CC2
Result: F

Ask: For this molecule, state the assay outcome: C[C@@H](Oc1ccc(C(=O)NS(=O)(=O)C(C)(C)C)cc1C(F)(F)F)c1ccc(Oc2ccccc2)cn1
Result: F

###

# Tested on: RXF 393 renal
# test.description: NCI-60 one-dose screen, 48 h
# applied.conditions: 10 µM unless noted
This is part of a sample that, as a whole, favours compounds with a hit. Of some 83,000 tested, about 20% had one in any assay. The source made the active and inactive calls. How the source made its calls: active means growth percent below 10; inactive means the rest.
API: response.call in T for active, F for inactive

Solved cases (3 shown):
[
  {
    "compound": "CC(C)=CCC[C@](C)(O)[C@H]1CC[C@]2(C)[C@@H]1CC[C@@H]1[C@@]3(C)C/C(=C/c4ccc(Br)cc4)C(=O)C(C)(C)[C@@H]3CC[C@]12C",
    "assigned.label": "F"
  },
  {
    "compound": "NCCn1cc(-c2nc(-c3c[nH]c4ncccc34)cs2)c2cc(Br)ccc21",
    "assigned.label": "F"
  },
  {
    "compound": "O=c1[nH]ncc(Br)c1Br",
    "assigned.label": "T"
  }
]

Ask: For this compound, state the assay outcome: Cc1cccc(C)c1NCc1nc(-c2ccccc2)n[nH]1
Result: F

Ask: For this compound, state the assay outcome: CCCCC[C@H]1C/C=C2/C(=O)C(Cl)=C[C@@H]2C/C=C\CCCC(=O)O1
Result: T

Ask: For this compound, state the assay outcome: COc1cc(-c2cc3ncccc3c3nc(OCCN(C)C)c4cccnc4c23)cc(OC)c1OC
Result: T

Ask: For this compound, state the assay outcome: CCN1CCN(C(=O)[C@]23CC[C@@H](C)[C@H](C)[C@H]2C2=CC[C@@H]4[C@@]5(C)C/C(=C/c6cccc(OC)c6OC)C(=O)C(C)(C)[C@@H]5CC[C@@]4(C)[C@]2(C)CC3)CC1
Result: F

Ask: For this compound, state the assay outcome: COc1ccc(NC(=O)c2ccc3c(c2)nc(-c2cc4ccccc4[nH]c2=O)n3-c2cc(C(C)(C)C)[nH]n2)cc1
Result: F

Ask: For this compound, state the assay outcome: Cc1ccc(NC2CC(=O)N(c3c(C)cc(C)cc3C)C2=O)c(C)c1 (centres undefined)
Result: F

###

# Test system: SNB-19 CNS
# test.description: NCI-60 one-dose screen, 48 h (100 = growth as untreated, 0 = no growth, -100 = all killed)
# applied.conditions: 10 µM unless noted
Compounds without any hit were thinned out: in the full panel of roughly 83,000, 20% have a hit.
readout.name: growth (%)
One number for each entry, in %.

Reference set, count: 5
[
  {
    "compound": "c1ccc2[nH]c(-c3cc(-c4ccc5c(c4)OCO5)n[nH]3)nc2c1",
    "growth (%)": 68.3
  },
  {
    "compound": "Cc1[c-]onc1C.Cc1[c-]onc1C.[Ag].[Ag].[NH-]S(=O)(=O)c1ccc(N=Nc2cc(N=Nc3ccc(S([NH-])(=O)=O)cc3)c3c(NC(=O)C(Cl)Cl)cccc3c2OC(=O)C(Cl)Cl)cc1",
    "growth (%)": 86.6
  },
  {
    "compound": "CCCCC[C@H]1C/C=C2/C(=O)C=C[C@@H]2C/C=C\\CCCC(=O)O[C@@H](CCCCC)C/C=C2/C(=O)C=C[C@@H]2C/C=C\\CCCC(=O)O1",
    "growth (%)": -83.4
  },
  {
    "compound": "COc1ccc2nc(-c3cc(-c4cc(OC)c(OC)c(OC)c4)n[nH]3)[nH]c2c1",
    "growth (%)": 50.1
  },
  {
    "compound": "COc1ccc(/C=C(\\C#N)c2cc3ccccc3n2S(C)(=O)=O)cc1",
    "growth (%)": 82.3
  }
]

Please look at the items below and tell me growth for each one, in order.
1. O=C1CCN2C(=O)Nc3ccccc3C2C1 (centres undefined)
2. COC(c1ccccc1)(c1ccccc1)c1ccccc1

Result:
92
96

Please look at the items below and tell me growth for each one, in order.
1. C[C@H]1OC(=O)/C=C/[C@@H](O)[C@@H](O)CCCCCCCC[C@@H]1O
2. Brc1ccc2[nH]cc(-c3nc(-c4c[nH]c5ncccc45)cs3)c2c1

Result:
1: 100; 2: 68.8

The origin of these recorded values is PubChem BioAssay (NCI).
